target: RAC-alpha serine/threonine-protein kinase (Homo sapiens, UniProt P31749); test: Inhibition of human cloned Akt1 expressed in Drosophila S2 cells by HTRF assay; format: cell-based
Sequence (P31749 whole entry): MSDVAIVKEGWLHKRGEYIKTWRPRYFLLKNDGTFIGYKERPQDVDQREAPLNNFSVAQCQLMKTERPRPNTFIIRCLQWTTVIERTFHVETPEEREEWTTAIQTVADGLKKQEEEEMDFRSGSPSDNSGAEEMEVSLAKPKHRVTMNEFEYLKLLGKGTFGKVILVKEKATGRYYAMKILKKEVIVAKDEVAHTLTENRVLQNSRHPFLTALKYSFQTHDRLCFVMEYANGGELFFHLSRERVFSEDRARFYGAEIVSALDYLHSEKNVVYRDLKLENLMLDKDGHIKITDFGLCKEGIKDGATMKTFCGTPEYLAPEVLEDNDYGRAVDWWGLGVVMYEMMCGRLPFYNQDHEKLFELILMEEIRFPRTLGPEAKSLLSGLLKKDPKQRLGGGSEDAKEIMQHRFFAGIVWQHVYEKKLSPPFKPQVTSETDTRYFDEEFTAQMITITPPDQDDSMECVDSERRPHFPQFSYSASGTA
Value type: IC50 (nM)
Please respond with the number in nM and leave the unit unwritten.

Smiles code: Nc1nnc2c3cc(-c4ccccc4)c(-c4ccc(CN5CCC(c6n[nH]c(-c7ccccn7)n6)CC5)cc4)nc3ccn12
Unit symbol: nM
IC50: 2.8
--
Smiles code: OCCNCc1nnc2c3cc(-c4ccccc4)c(-c4ccc(CN5CCC(c6n[nH]c(-c7ccccn7)n6)CC5)cc4)nc3ccn12
Unit symbol: nM
IC50: 17
--
Smiles code: CN1CCN(Cc2nnc3c4cc(-c5ccccc5)c(-c5ccc(CN6CCC(c7n[nH]c(-c8ccccn8)n7)CC6)cc5)nc4ccn23)CC1
Unit symbol: nM
IC50: 9.9
--
Smiles code: Cc1nnc2c3cc(-c4ccccc4)c(-c4ccc(CN5CCC(c6n[nH]c(-c7ccccn7)n6)CC5)cc4)nc3ccn12
Unit symbol: nM
IC50: 4.6
--
Smiles code: Oc1nnc2c3cc(-c4ccccc4)c(-c4ccc(CN5CCC(c6n[nH]c(-c7ccccn7)n6)CC5)cc4)nc3ccn12
Unit symbol: nM
IC50: 2.6
--
Smiles code: ClCc1nnc2c3cc(-c4ccccc4)c(-c4ccc(CN5CCC(c6n[nH]c(-c7ccccn7)n6)CC5)cc4)nc3ccn12
Unit symbol: nM
IC50: 26.7

Problem: Tell me the measured IC50 of c1ccc(-c2cc3c(ccn4cnnc34)nc2-c2ccc(CN3CCC(c4n[nH]c(-c5ccccn5)n4)CC3)cc2)cc1 , please.
Solution: 4

Problem: Tell me the measured IC50 of Nc1nnc2c3cc(-c4ccccc4)c(-c4ccc(CN5CCC(n6cnc(-c7ccccn7)c6)CC5)cc4)nc3ccn12 , please.
Solution: 3.3

Problem: Tell me the measured IC50 of NC(=O)Nc1nnc2c3cc(-c4ccccc4)c(-c4ccc(CN5CCC(c6n[nH]c(-c7ccccn7)n6)CC5)cc4)nc3ccn12 , please.
Solution: 8.5

Problem: Tell me the measured IC50 of Sc1nnc2c3cc(-c4ccccc4)c(-c4ccc(CN5CCC(c6n[nH]c(-c7ccccn7)n6)CC5)cc4)nc3ccn12 , please.
Solution: 10
